Test system: potato tubers
Test: Sprout inhibition by C5 to C7 alcohols, sprout fresh weight 21 days after treatment at 18° C.
Type: in vivo
Settings: 0.75 mmol/kg tubers, 24 h treatment
Parameter % Inhibition of sprouting: see the listing below.
MEASURE_NAME: % Inhibition of sprouting (%)

INSERT INTO measurements (compound, numeric_value) VALUES
  ('CCCCCC(C)O (stereo not drawn)', 97.7),
  ('CCCC/C=C/CO [trans-2-hepten-1-ol]', 99.4),
  ('CCCCCCCO', 95.7),
  ('CCCCCO', 45.8),
  ('CCCCCCO', 71.9),
  ('CCC/C=C/CO [trans-2-hexen-1-ol]', 100.0);
